EC50 reference
- Measured On: human odorant receptors (ORs) (Homo sapiens)
- Construct: OR open reading frames were amplified from genomic DNA; expressed in transfected cells; host or cells: Hana3A cells, co-transfected with RTP1S, CRE-luciferase and pRL-SV40
- Sequence (Q9P1Q5 whole entry): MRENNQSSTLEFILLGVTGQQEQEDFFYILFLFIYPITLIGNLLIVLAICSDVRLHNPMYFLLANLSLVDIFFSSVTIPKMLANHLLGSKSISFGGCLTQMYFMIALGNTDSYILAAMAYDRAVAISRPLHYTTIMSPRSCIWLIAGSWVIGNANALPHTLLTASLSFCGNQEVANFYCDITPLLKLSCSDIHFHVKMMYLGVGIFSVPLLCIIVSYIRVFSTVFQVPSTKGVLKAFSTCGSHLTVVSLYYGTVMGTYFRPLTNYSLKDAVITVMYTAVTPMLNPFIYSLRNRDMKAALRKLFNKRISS
- Assay Overview: CRE-luciferase assay of odorant receptor activation (Dual-Glo, Hana3A cells, RTP1S), dose-response EC50
- Type: cell-based
- Condition Label: receptor OR1A1; read-out: log EC50 (Table 4 value), OR1A1 (converted)
Entry rule: numbers only, all in µM.

[
  {
    "Compound": "CC(C)=CCC/C(C)=C/CO [Getaniol]",
    "Measured On": "human odorant receptors (ORs) (Homo sapiens)",
    "EC50 / µM": 341
  }
]

Okay, next one:
Given the compound C=CCOC(=O)CCCCCC [Allyl heptanoate] , what is its reported EC50?
475

---

- Measured On: mouse odorant receptors (ORs) (Mus musculus, UniProt P23275)
- Construct: OR open reading frames were amplified from genomic DNA; expressed in transfected cells; host or cells: Hana3A cells, co-transfected with RTP1S, CRE-luciferase and pRL-SV40
- Sequence (P23275 whole entry): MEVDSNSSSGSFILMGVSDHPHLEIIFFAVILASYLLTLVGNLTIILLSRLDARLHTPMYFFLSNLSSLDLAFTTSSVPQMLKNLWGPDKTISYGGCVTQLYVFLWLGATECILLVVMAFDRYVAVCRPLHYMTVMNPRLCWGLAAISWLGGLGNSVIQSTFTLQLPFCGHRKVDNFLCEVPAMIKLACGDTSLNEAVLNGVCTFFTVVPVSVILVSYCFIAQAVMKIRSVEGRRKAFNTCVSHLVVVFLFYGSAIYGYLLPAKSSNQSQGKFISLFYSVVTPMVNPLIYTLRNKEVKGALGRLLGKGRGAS
- Assay Overview: CRE-luciferase assay of odorant receptor activation (Dual-Glo, Hana3A cells, RTP1S), dose-response EC50
- Type: cell-based
- Condition Label: receptor MOR256-17; read-out: log EC50 of odorant at MOR256-17 (0 = no response) (converted)
Below, each entry is listed with its recorded EC50.
Field format: number, assumed µM, no unit text.

In the examples that follow, each entry is paired with its recorded EC50.
[
  {
    "Molecule": "CCCCCCCC(=O)O [Octanoic Acid]",
    "Result Value": 38.9
  },
  {
    "Molecule": "CCCCCCCCS [Octanethiol]",
    "Result Value": 40.9
  },
  {
    "Molecule": "CCCCCCCCC(=O)O [Nonanoic acid]",
    "Result Value": 20.2
  }
]

Next up:
Find the recorded EC50 belonging to CC(C)(O)CCCC1=CCC(C=O)CC1 (stereo not shown) [Lyral] and report it.
55.6

---

Listed compounds paired with reported EC50
- Measured On: human odorant receptors (ORs) (Homo sapiens)
- Construct: OR open reading frames were amplified from genomic DNA; expressed in transfected cells; host or cells: Hana3A cells, co-transfected with RTP1S, CRE-luciferase and pRL-SV40
- Assay Overview: CRE-luciferase assay of odorant receptor activation (Dual-Glo, Hana3A cells, RTP1S), dose-response EC50
- Type: cell-based
- Condition Label: receptor OR1A1; 0 = no response; read-out: log EC50, OR1A1 (converted)
Express your answer as a number followed by its unit.

Below, each entry is followed by its recorded EC50 result.
[
  {
    "Compound": "CCCCCCC(C)=O [2-Octanone]",
    "EC50": "42.7 µM"
  },
  {
    "Compound": "CC(C)=CCCC(C)CCO (single isomer, unassigned; (-)) [(−)-b-C ? inedol]",
    "EC50": "91.4 µM"
  },
  {
    "Compound": "CCCCC(=O)CC [3-Haptonone]",
    "EC50": "19.4 µM"
  }
]

Query (compound): CCCCCCCO [1-Heptanol] ; field requested: EC50
971 µM

Item CCCCCCCC(C)=O [2-Noranone] has what recorded EC50?
265 µM

Entry under review: CCCCCC(C)=O [2-Haptonone] . Reported EC50?
39.9 µM

Reference for the values: patent US20100248390A1
